# tgt: soluble guanylate cyclase (GUCYA3/GUCYB3) overexpressed in CHO cells (Homo sapiens, UniProt Q02108+Q02153)
# Construct: expressed in transfected cells
# protocol_text: CHO cellular assay (cGMP production, HTRF)
# Format: cell-based
# cond: CHO GUCY clone 8E10; assay buffer with 1 mM IBMX, 20 uM ODQ; 1 h at room temperature; cGMP HTRF; quantification limit 0.0005 μM; read-out: Mean EC50
pEC50: −log10 of the molar value.
assay_metric: pEC50

Here are 2 compounds together with their reported answers.
CCc1cc(C[C@@H]2CCc3cccc(-c4cccc(-n5ncc(C(=O)O)c5OC)c4)c32)ccc1C1CCN(C(=O)[C@H](C)O)CC1 [Example 2B] = 7.47
CCc1cc(NC2CCc3cccc(-c4cccc(-n5ncc(C(=O)O)c5N)n4)c32)ccc1C1CCN(C(=O)C2CC2)CC1 (single isomer, unassigned; (-)) [Example 18B] = 7.51

[A] CCc1nc(NC2CCc3cccc(-c4cccc(-n5ncc(C(=O)O)c5OC)c4)c32)ccc1C1=CCN(C(=O)[C@H](C)O)CC1 (single isomer, unassigned) [Example 11A]
[B] CCc1nc(NC2CCc3cccc(-c4cccc(-n5ncc(C(=O)O)c5OC)n4)c32)ccc1C1=CCN(C(=O)C2CC2)CC1 (single isomer, unassigned; (-)) [Example 16B]
Of the two listed items, which has the higher pEC50? First: A Second: B Pick one and reply with its label.
A

* * *

# tgt: soluble guanylate cyclase (GUCYA3/GUCYB3) overexpressed in CHO cells (Homo sapiens, UniProt Q02108+Q02153)
# Construct: expressed in transfected cells
# Sequence (Q02108 1-690 partner): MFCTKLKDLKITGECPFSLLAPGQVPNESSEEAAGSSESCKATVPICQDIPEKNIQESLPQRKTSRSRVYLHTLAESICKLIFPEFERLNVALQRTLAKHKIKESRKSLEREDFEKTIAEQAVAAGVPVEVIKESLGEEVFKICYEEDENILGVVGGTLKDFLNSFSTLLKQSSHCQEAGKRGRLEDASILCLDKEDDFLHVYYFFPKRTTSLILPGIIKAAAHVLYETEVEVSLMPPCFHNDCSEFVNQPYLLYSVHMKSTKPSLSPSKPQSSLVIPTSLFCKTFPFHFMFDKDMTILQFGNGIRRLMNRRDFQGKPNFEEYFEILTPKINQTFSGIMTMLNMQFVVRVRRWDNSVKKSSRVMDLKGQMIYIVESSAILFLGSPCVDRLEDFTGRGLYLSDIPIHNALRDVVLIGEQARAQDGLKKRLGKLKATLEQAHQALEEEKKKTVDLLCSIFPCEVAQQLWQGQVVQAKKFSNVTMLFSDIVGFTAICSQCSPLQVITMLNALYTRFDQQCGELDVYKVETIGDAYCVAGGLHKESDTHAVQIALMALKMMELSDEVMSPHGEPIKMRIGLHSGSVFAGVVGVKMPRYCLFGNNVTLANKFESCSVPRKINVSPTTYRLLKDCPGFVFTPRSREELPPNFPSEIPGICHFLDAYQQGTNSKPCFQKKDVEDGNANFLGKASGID
# Sequence (Q02153 1-619): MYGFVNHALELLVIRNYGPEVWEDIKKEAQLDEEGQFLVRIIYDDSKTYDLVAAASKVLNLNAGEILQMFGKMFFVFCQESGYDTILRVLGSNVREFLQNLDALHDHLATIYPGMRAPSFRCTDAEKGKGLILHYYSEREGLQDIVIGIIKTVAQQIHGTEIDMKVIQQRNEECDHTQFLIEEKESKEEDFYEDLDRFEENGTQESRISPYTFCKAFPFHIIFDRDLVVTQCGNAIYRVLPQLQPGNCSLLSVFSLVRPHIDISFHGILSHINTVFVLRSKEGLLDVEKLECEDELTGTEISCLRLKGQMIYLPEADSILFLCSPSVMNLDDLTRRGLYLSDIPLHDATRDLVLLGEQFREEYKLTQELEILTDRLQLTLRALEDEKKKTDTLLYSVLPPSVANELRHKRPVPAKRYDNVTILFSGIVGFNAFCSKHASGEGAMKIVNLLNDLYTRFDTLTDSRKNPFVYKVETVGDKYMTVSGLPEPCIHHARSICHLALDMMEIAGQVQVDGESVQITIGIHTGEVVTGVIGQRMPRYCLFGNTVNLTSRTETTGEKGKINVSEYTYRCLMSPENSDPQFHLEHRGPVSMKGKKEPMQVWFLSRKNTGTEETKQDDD
# protocol_text: CHO cellular assay (cGMP production, HTRF)
# Format: cell-based
# cond: CHO GUCY clone 8E10; assay buffer with 1 mM IBMX, 20 uM ODQ; 1 h at room temperature; cGMP HTRF; quantification limit 0.0005 μM; read-out: Mean EC50
assay_metric: EC50

Here are 3 compounds together with their reported answers.
CCc1cc(NC2CCc3cccc(-c4ccc(C)c(-n5ncc(C(=O)O)c5OC)c4)c32)ccc1C1CCN(C(=O)C2CC2)CC1 (single isomer, unassigned; (+)) [Example 7A] = < 0.5 nM
CCc1cc(NC2CCc3cccc(-c4cccc(-n5ncc(C(=O)O)c5OC)c4)c32)ccc1C1CCN(C(=O)[C@H](C)O)CC1 (single isomer, unassigned; (-)) [Example 4B] = 110 nM
CCc1nc(NC2CCc3cccc(-c4cccc(-n5ncc(C(=O)O)c5NC)c4)c32)ccc1C1=CCN(C(=O)C2CC2)CC1 (single isomer, unassigned; (+)) [Example 22A] = < 0.5 nM

Here's the next entry for you.
The value of EC50 measured for the compound CCc1cc(NC2CCc3cccc(-c4cccc(-n5ncc(C(=O)O)c5NC)c4)c32)ccc1C1CCN(C(=O)C2CC2)CC1 (single isomer, unassigned; enantiomer-2) [Example 12B] turned out to be < 0.5 nM
